- measuredOn: HePTP (Homo sapiens)
- Sequence (P35236 whole entry, species assumed): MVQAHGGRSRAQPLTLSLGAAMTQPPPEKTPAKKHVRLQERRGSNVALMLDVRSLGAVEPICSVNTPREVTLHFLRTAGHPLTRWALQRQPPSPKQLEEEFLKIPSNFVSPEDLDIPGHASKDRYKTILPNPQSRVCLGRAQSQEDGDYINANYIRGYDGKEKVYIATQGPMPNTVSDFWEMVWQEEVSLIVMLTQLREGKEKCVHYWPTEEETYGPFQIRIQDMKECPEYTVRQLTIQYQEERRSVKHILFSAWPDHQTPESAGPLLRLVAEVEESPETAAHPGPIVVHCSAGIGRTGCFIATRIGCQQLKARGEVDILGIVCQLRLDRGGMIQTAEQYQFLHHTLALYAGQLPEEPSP
- experimentNotes: PTP-catalyzed hydrolysis of DiFMUP, IC50 determination (HePTP)
- Assay type: biochemical
- measurementConditions: Table II; DiFMUP at Km, pH 6.0, 30° C.
endpointLabel: pIC50
Scale explanation: pIC50 corresponds to minus log10 of a concentration expressed in moles per litre.

Qu. Annotate the compound "O=C1/C(=C/c2cn(-c3ccccc3)nc2-c2ccc(OCc3ccc(Cl)cc3)cc2)SC(=S)N1CCS(=O)(=O)O" with its measured pIC50.
Ans. 6.21

* * *

- measuredOn: Cdc25A (Homo sapiens)
- Sequence (P30304 1-524): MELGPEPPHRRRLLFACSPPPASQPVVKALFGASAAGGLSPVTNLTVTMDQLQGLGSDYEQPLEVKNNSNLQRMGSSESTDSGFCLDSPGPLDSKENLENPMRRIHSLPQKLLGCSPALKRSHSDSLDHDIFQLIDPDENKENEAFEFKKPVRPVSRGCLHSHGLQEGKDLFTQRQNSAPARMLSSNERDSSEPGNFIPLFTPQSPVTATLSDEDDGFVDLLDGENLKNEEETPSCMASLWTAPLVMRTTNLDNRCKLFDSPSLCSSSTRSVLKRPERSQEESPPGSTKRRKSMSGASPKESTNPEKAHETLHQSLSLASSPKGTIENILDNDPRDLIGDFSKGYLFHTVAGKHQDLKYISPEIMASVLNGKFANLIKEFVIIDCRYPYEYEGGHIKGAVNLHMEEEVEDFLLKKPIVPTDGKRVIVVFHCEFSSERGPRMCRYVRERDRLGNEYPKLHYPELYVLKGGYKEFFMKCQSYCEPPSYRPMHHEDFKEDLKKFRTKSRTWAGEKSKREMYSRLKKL
- experimentNotes: PTP-catalyzed hydrolysis of DiFMUP, IC50 determination (Cdc25A)
- Type: biochemical
- measurementConditions: Table II; DiFMUP at Km, pH 6.0, 30° C.
endpointLabel: pIC50
Scale explanation: pIC50 corresponds to minus log10 of a concentration expressed in moles per litre.

Qu. Annotate the molecule O=C1/C(=C/c2cn(-c3ccccc3)nc2-c2ccc(OCc3ccccc3)cc2)SC(=S)N1CCS(=O)(=O)O [Compound 9] with its measured pIC50.
Ans. 5.46

* * *

- measuredOn: Cdc25A (Homo sapiens, UniProt P30304)
- experimentNotes: PTP-catalyzed hydrolysis of DiFMUP, IC50 determination (Cdc25A)
- Assay type: biochemical
endpointLabel: IC50 (nM)
The figure you give is taken to be in nM; do not add the unit.

smilesData: O=C1/C(=C/c2cn(-c3ccccc3)nc2-c2ccc(S(=O)(=O)N3CCOCC3)cc2)SC(=S)N1CCS(=O)(=O)O
scaleUnit: nM
IC50: 3370

Qu. Given "O=C1/C(=C/c2cn(-c3ccccc3)nc2-c2ccc(OCc3ccc(Cl)cc3)cc2)SC(=S)N1CCS(=O)(=O)O" , report its IC50 on Cdc25A (Homo sapiens, UniProt P30304).
Ans. 2450

* * *

- measuredOn: VHR (Homo sapiens, UniProt P51452)
- Sequence (P51452 whole entry): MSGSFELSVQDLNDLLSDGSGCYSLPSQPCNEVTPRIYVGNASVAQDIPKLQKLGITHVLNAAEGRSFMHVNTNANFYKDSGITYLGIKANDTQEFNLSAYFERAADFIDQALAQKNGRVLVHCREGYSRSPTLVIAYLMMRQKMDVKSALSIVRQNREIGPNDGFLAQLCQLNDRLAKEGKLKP
- experimentNotes: PTP-catalyzed hydrolysis of DiFMUP, IC50 determination (VHR)
- Format: biochemical
- measurementConditions: Table I; DiFMUP at Km, pH 6.0, 30° C.; read-out: IC50
Overview of recorded IC50 for various molecules
The figure you give is taken to be in nM; do not add the unit.

molecule: O=C1/C(=C/c2cn(-c3ccccc3)nc2-c2ccc(S(=O)(=O)N3CCOCC3)cc2)SC(=S)N1CCS(=O)(=O)O [Compound 14]
endpointLabel: IC50
testValue: 2440
//
molecule: O=C1/C(=C/c2cn(-c3ccccc3)nc2-c2ccc(OCc3ccccc3)cc2)SC(=S)N1CCS(=O)(=O)O [Compound 9]
endpointLabel: IC50
testValue: 78

Shifting focus to the molecule that follows.
Qu. Annotate the molecule O=C1/C(=C/c2cn(-c3ccccc3)nc2-c2ccc(OCc3ccc(Cl)cc3)cc2)SC(=S)N1CCS(=O)(=O)O [Compound 10] with its measured IC50.
Ans. 18

* * *

Overview of recorded IC50 for various molecules
- measuredOn: UniProtKB P08575
- Sequence (P08575 26-1306): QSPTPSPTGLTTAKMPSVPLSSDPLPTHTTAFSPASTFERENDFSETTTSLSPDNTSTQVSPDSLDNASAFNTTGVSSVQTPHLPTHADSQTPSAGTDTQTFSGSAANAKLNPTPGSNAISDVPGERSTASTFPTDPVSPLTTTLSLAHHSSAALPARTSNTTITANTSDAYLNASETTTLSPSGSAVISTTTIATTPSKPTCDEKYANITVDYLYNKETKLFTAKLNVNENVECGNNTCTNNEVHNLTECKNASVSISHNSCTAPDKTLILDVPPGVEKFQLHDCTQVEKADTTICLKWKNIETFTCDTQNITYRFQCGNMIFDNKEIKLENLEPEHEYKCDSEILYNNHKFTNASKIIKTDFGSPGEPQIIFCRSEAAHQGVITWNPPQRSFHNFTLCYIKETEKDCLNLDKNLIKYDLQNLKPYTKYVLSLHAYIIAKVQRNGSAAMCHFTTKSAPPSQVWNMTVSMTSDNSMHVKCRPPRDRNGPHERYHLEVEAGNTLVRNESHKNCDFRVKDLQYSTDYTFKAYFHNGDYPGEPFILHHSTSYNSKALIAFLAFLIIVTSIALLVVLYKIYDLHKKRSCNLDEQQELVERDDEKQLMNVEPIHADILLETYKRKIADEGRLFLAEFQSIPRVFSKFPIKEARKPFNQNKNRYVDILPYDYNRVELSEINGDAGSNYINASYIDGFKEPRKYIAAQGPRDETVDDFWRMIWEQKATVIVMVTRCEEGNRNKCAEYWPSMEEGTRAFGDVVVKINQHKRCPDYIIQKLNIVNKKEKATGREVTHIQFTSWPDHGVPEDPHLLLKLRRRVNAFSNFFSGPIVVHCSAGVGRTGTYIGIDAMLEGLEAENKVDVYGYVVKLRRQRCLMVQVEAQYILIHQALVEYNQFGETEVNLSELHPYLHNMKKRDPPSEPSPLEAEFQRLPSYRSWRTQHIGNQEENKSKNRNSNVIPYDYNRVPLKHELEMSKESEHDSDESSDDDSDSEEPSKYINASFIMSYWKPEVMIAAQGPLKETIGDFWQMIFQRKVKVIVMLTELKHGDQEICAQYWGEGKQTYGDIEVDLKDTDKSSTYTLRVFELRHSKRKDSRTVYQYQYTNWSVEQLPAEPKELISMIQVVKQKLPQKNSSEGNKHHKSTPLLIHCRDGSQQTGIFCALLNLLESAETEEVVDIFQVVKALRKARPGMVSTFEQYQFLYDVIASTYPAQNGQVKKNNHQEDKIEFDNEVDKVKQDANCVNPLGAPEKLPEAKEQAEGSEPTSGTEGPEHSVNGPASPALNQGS
- experimentNotes: PTP-catalyzed hydrolysis of DiFMUP, IC50 determination (CD45)
- Assay type: biochemical
- measurementConditions: Table II; DiFMUP at Km, pH 6.0, 30° C.
The figure you give is taken to be in nM; do not add the unit.

molecule: O=C1/C(=C/c2cn(-c3ccccc3)nc2-c2ccc(OCc3ccc(Cl)cc3)cc2)SC(=S)N1CCS(=O)(=O)O [Compound 10]
IC50 (nM): 460

Qu. Annotate the molecule O=C1/C(=C/c2cn(-c3ccccc3)nc2-c2ccc(OCc3ccccc3)cc2)SC(=S)N1CCS(=O)(=O)O [Compound 9] with its measured IC50.
Ans. 609

* * *

- measuredOn: PTP1B (Homo sapiens, UniProt P18031)
- Sequence (P18031 whole entry, species assumed): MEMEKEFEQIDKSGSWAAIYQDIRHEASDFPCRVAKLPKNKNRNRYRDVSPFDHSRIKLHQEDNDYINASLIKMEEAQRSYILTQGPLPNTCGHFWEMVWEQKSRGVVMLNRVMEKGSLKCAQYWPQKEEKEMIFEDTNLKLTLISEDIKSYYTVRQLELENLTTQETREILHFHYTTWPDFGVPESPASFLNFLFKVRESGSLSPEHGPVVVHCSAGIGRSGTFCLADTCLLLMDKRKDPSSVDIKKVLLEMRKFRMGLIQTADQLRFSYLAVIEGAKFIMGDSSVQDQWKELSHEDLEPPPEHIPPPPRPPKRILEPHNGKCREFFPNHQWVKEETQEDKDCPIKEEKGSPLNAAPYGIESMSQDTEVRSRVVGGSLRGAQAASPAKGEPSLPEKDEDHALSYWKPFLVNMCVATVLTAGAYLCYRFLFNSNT
- experimentNotes: PTP-catalyzed hydrolysis of DiFMUP, IC50 determination (PTP1B)
- Assay type: biochemical
Overview of recorded IC50 for various molecules
Numeric answer plus unit only.

smilesData: O=C1/C(=C/c2cn(-c3ccccc3)nc2-c2ccc(OCc3ccccc3)cc2)SC(=S)N1CCS(=O)(=O)O
testValue: 1.75 µM

Shifting focus to the molecule that follows.
Qu. Annotate the molecule "O=C1/C(=C/c2cn(-c3ccccc3)nc2-c2ccc(S(=O)(=O)N3CCOCC3)cc2)SC(=S)N1CCS(=O)(=O)O" with its measured IC50.
Ans. 0.592 µM

* * *

- measuredOn: UniProtKB P08575
- experimentNotes: PTP-catalyzed hydrolysis of DiFMUP, IC50 determination (CD45)
- Assay type: biochemical
endpointLabel: pIC50
Scale explanation: pIC50 corresponds to minus log10 of a concentration expressed in moles per litre.

Qu. Annotate the compound "O=C1/C(=C/c2cn(-c3ccccc3)nc2-c2ccc(S(=O)(=O)N3CCOCC3)cc2)SC(=S)N1CCS(=O)(=O)O" with its measured pIC50.
Ans. 6.52
